- Protocol: Drug clearance rate in isolated Sprague-Dawley rat heart
- Type: ADME, tissue-based

{"Compound": "N=[11C](N)NCC(O)c1cccc(O)c1 (stereo not drawn)", "half-life": "> 6.33 days"}
{"Compound": "N=[11C](N)NCCc1ccc(F)c(O)c1", "half-life": "> 3.04 days"}
{"Compound": "N=[11C](N)NCCc1cccc(O)c1", "half-life": "> 4.25 days"}

###

- Test system: Adrenal medulla
- Protocol: Biodistribution in adrenal medulla of Sprague-Dawley rat at 50 to 350 uCi, iv
- Format: ADME, organism-based
- Details: in vivo
Endpoint: Drug uptake (% ID/g)

{"Smiles representation": "N=[11C](N)NCCc1ccc(O)cc1", "Experimental result": 1.17}
{"Smiles representation": "N=[11C](N)NC[C@H](O)c1ccccc1", "Experimental result": 0.53}
{"Smiles representation": "N=[11C](N)NCCc1ccc(F)c(O)c1", "Experimental result": 0.56}
{"Smiles representation": "N=[11C](N)NCCc1cc(O)ccc1F", "Experimental result": 0.46}
